- method.notes: protein stability index of a GFP-peptide fusion (yeast GPS) (PSI 1-4); higher = more stable; sorted into four equal gates, so the index is relative within each strain
- condition.details: pdr5∆
readout.type: protein stability index

Inquiry: Item ISHDDLQAVAVAVSTKK [FAS2] has what recorded protein stability index?
Reply text: 1.48

Inquiry: Item NVNKKALGQDTEKMEEQ [MED11] has what recorded protein stability index?
Reply text: 2.94

Inquiry: Item HLVWMKGTNDEGTSISV [YCS4] has what recorded protein stability index?
Reply text: 2.23

Inquiry: Item VNHLLLFAREIAKSQDK [DPB4] has what recorded protein stability index?
Reply text: 2.85

Next:
Inquiry: Item EQNHLDNNYNTAETNNK [YDL088C/ASM4] has what recorded protein stability index?
Reply text: 2.96

Inquiry: Item LKRSTELLETVSLTKRK [YIL149C/MLP2] has what recorded protein stability index?
Reply text: 2.06

Inquiry: Item NNKNKRVTGAGGQQRRM [RPC53] has what recorded protein stability index?
Reply text: 2.78

Inquiry: Item MLLEEQLEYKRGEIREI [MED7] has what recorded protein stability index?
Reply text: 2.92

Inquiry: Item MVKNVKPSSPPDVKSLV [SIR4] has what recorded protein stability index?
Reply text: 3.12

Inquiry: Item ETVKLPRVSNQSNEDTF [RRI2] has what recorded protein stability index?
Reply text: 3.22

Inquiry: Item HGILDDLETSLSQSSSY [MED2] has what recorded protein stability index?
Reply text: 3.33

Inquiry: Item VVDPKTSIEKSSEILSY [YML103C/NUP188] has what recorded protein stability index?
Reply text: 1.43

Inquiry: Item WGGFPLDISVFLLEKAG [TAF14] has what recorded protein stability index?
Reply text: 3.38

* * *

- method.notes: protein stability index of a GFP-peptide fusion (yeast GPS) (PSI 1-4); higher = more stable; sorted into four equal gates, so the index is relative within each strain
- condition.details: doa10∆
readout.type: protein stability index
No unit in the answer, only the number.

Examples with answers:
Inquiry: Item IQNKKIQEQRVKDKQSK [RPN8] has what recorded protein stability index?
Reply text: 1.97

Inquiry: Item VNQTGSTKKDTVQLTFL [YCG1] has what recorded protein stability index?
Reply text: 3.05

Inquiry: Item TQNSRHYMVHEALNLLK [LIN1] has what recorded protein stability index?
Reply text: 3.03

Inquiry: Item IRKLTLRDTFIELDQVL [RPO21] has what recorded protein stability index?
Reply text: 2.31

Inquiry: Item YKHIDASGSINRKVLQA [RPS19A] has what recorded protein stability index?
Reply text: 2.06

Inquiry: Item AASTPTTTATPHANPIT [PGD1] has what recorded protein stability index?
Reply text: 2.91

Inquiry: Item KKNIQKAKSNQTQREKA [IRR1] has what recorded protein stability index?
Reply text: 2.59

Inquiry: Item SYIGTIIVKDKSNDSEG [POP1] has what recorded protein stability index?
Reply text: 1.4

Inquiry: Item LYGLNLTLRKAKAPSGL [FAS1] has what recorded protein stability index?
Reply text: 2.92

Inquiry: Item INELVLENFKSYAGKQV [SMC4] has what recorded protein stability index?
Reply text: 2.69

Next:
Inquiry: Item ALQILNSGIIPGNRNAD [FAS2] has what recorded protein stability index?
Reply text: 2.38

Inquiry: Item PNFEASFVHGVVGQLFQ [SMC2] has what recorded protein stability index?
Reply text: 1.61

Inquiry: Item FVDLNEKELQNEIKQLG [SRB4] has what recorded protein stability index?
Reply text: 2.31

Inquiry: Item NSSSMEEVMRIALMGQD [ESC2] has what recorded protein stability index?
Reply text: 2.69

Inquiry: Item IRPTELRLPFSAAMSID [PRP8] has what recorded protein stability index?
Reply text: 1.93

Inquiry: Item MMENYQNISPVYSVDPL [PRP8] has what recorded protein stability index?
Reply text: 2.08

Inquiry: Item ISVIETIRVVTENKIFV [RPN5] has what recorded protein stability index?
Reply text: 1.6

* * *

Items are presented alongside their recorded protein stability index.
- method.notes: protein stability index of a GFP-peptide fusion (yeast GPS) (PSI 1-4); higher = more stable; sorted into four equal gates, so the index is relative within each strain
- condition.details: pdr5∆

Inquiry: Item EKINRMIIFLKNYDATD [CSI1] has what recorded protein stability index?
Reply text: 2.34

Inquiry: Item AILRQQQQMANNNGNPG [GAL11] has what recorded protein stability index?
Reply text: 3.19

Next:
Inquiry: Item SSDDRVKVLAATNRVDV [RPT5] has what recorded protein stability index?
Reply text: 2.95

Inquiry: Item RPFDSFGKLLQAYQFLN [ITC1] has what recorded protein stability index?
Reply text: 1.58

* * *

- method.notes: protein stability index of a GFP-peptide fusion (yeast GPS) (PSI 1-4); higher = more stable; sorted into four equal gates, so the index is relative within each strain
- condition.details: ubr1∆
protein stability index below 3 gives F; protein stability index at or above it gives T.

Look over these answered cases.
Inquiry: Hello, I need to know if QNDILQESFINTMSAWV [FAS2] has measured protein stability index not below 3. Thanks!
Reply text: F

Inquiry: Hello, I need to know if NPFEDDMDGVDFNQAFE [BRN1] has measured protein stability index not below 3. Thanks!
Reply text: T

Inquiry: Hello, I need to know if ITDKTIESIVNLAPKLR [GRR1] has measured protein stability index not below 3. Thanks!
Reply text: F

Next:
Inquiry: Hello, I need to know if EEKGWVPVTKLGRLVKA [RPS2] has measured protein stability index not below 3. Thanks!
Reply text: T

Inquiry: Hello, I need to know if IGAVYSGMGPDYRVLVD [PRE8] has measured protein stability index not below 3. Thanks!
Reply text: T

Inquiry: Hello, I need to know if IQFGAKNMFEKKASKVT [ISW2] has measured protein stability index not below 3. Thanks!
Reply text: F

Inquiry: Hello, I need to know if LSASWDKTLRLWDVATG [ASC1] has measured protein stability index not below 3. Thanks!
Reply text: T

Inquiry: Hello, I need to know if NAIIEANLGKYGILSID [RPL7A] has measured protein stability index not below 3. Thanks!
Reply text: F

Inquiry: Hello, I need to know if LEQEYRLILLLNHRNKN [RMP1] has measured protein stability index not below 3. Thanks!
Reply text: F

Inquiry: Hello, I need to know if HGTYFLDNMTYSSVAGT [RRP4] has measured protein stability index not below 3. Thanks!
Reply text: F

Inquiry: Hello, I need to know if MAPYLPGSRASSRFIKG [RPN2] has measured protein stability index not below 3. Thanks!
Reply text: F

Inquiry: Hello, I need to know if ETVKLPRVSNQSNEDTF [RRI2] has measured protein stability index not below 3. Thanks!
Reply text: T

Inquiry: Hello, I need to know if TYRSRAQQVPPYGVYHP [SIN4] has measured protein stability index not below 3. Thanks!
Reply text: F

Inquiry: Hello, I need to know if KSSGSSMATPTHSDSHE [ROX3] has measured protein stability index not below 3. Thanks!
Reply text: F

Inquiry: Hello, I need to know if VKSKIQDKEGIPPDQQR [RPS31] has measured protein stability index not below 3. Thanks!
Reply text: T

* * *

- method.notes: protein stability index of a GFP-peptide fusion (yeast GPS) (PSI 1-4); higher = more stable; sorted into four equal gates, so the index is relative within each strain
- condition.details: doa10∆
protein stability index below 3 gives F; protein stability index at or above it gives T.

Inquiry: Hello, I need to know if FVMKTRRRKGISTGGFM [SNU114] has measured protein stability index not below 3. Thanks!
Reply text: T

Inquiry: Hello, I need to know if CKKKEMSQYQSTMKENK [YIL149C/MLP2] has measured protein stability index not below 3. Thanks!
Reply text: F

Inquiry: Hello, I need to know if PTIEYVQCPTVIKLAKY [ARP9] has measured protein stability index not below 3. Thanks!
Reply text: F

Inquiry: Hello, I need to know if DSDELGGESMEGPKKCI [SNM1] has measured protein stability index not below 3. Thanks!
Reply text: T

Inquiry: Hello, I need to know if AETLCFTVNVLYPDSSS [RPN3] has measured protein stability index not below 3. Thanks!
Reply text: F

Next:
Inquiry: Hello, I need to know if AVSIETALEHKVVNGNS [FAS2] has measured protein stability index not below 3. Thanks!
Reply text: F

* * *

Items are presented alongside their recorded protein stability index.
- method.notes: protein stability index of a GFP-peptide fusion (yeast GPS) (PSI 1-4); higher = more stable; sorted into four equal gates, so the index is relative within each strain
- condition.details: san1∆
No unit in the answer, only the number.

Inquiry: Item EMLEENFPEASKLSEHL [YCG1] has what recorded protein stability index?
Reply text: 2.82

Inquiry: Item DDTAANNGDKDHLKLVS [YIL149C/MLP2] has what recorded protein stability index?
Reply text: 2.81

Inquiry: Item GGALDNPFEDDMDGVDF [BRN1] has what recorded protein stability index?
Reply text: 3.4

Inquiry: Item YVGNKRLELAGQLISLL [RET1] has what recorded protein stability index?
Reply text: 2.7

Inquiry: Item QTLLANSDHAKFTIEPG [SNF2] has what recorded protein stability index?
Reply text: 2.41

Next:
Inquiry: Item PKLESVKWQYDPNNPVD [SNF12] has what recorded protein stability index?
Reply text: 2.21

Inquiry: Item ALPSTHKVTQKKDIKIG [SIR4] has what recorded protein stability index?
Reply text: 2.56

Inquiry: Item QTFGVDILAKLFSLEKP [SWI1] has what recorded protein stability index?
Reply text: 2.58

Inquiry: Item QTTEGYDPKDALKNACN [RPB11] has what recorded protein stability index?
Reply text: 3.26

Inquiry: Item DTFRAGAFDQLKQNAIR [SRP54] has what recorded protein stability index?
Reply text: 3.09
